# Protocol: amyloid nucleation score (Sup35N fusion, yeast selection) (log enrichment); library NNK2; higher = more nucleation; inactive = no reads after selection;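 further: zero at mode of non-aggregating sequences after 7 days selection at 30°C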
Property Name: amyloid nucleation score
Please give only the number in your answer, with no unit.

Problem: Bench note: what amyloid nucleation score did RLSWLLLKFNDQVWRLIGAG show?
Result: 4.04

Problem: Bench note: what amyloid nucleation score did SSYPFNDPEMLG show?
Result: -1.09

Problem: Bench note: what amyloid nucleation score did ECSFVMKY show?
Result: 3.41

Problem: Bench note: what amyloid nucleation score did IVYLWRNRWVDLADYLLHVM show?
Result: 0.313

Problem: Bench note: what amyloid nucleation score did YNCCVKISVSM show?
Result: 5.48

Problem: Bench note: what amyloid nucleation score did PGMPARVHTCLSAMTYNFMC show?
Result: -0.901

Problem: Bench note: what amyloid nucleation score did LSIVKFI show?
Result: 1.3

Problem: Bench note: what amyloid nucleation score did QNECKIMTLIFCLLRSKQYY show?
Result: 0.005

Problem: Bench note: what amyloid nucleation score did GMSTRQFKLLPGCREVMRAG show?
Result: 0.571

Problem: Bench note: what amyloid nucleation score did YCTSRVTTRSFISDCLTWIR show?
Result: 1.97

Problem: Bench note: what amyloid nucleation score did LSFDEVTLVRAKFHGSVIRL show?
Result: 4.86

Problem: Bench note: what amyloid nucleation score did GVSSNGSLCWCVFMKVPAVC show?
Result: 2.98

Problem: Bench note: what amyloid nucleation score did HVFADERMDVGGSITVTARG show?
Result: 0.164

Problem: Bench note: what amyloid nucleation score did LQFLLLE show?
Result: 3.38

Problem: Bench note: what amyloid nucleation score did GLYHFRVITASKSQMEGFLM show?
Result: -0.018

Problem: Bench note: what amyloid nucleation score did RVNSIAFI show?
Result: -0.701

Problem: Bench note: what amyloid nucleation score did WGEVRLCESMVCCLGRIQGR show?
Result: 4.1

Problem: Bench note: what amyloid nucleation score did EWSRGLCTVQLA show?
Result: 0.058

Problem: Bench note: what amyloid nucleation score did LIAKMAIKFKGDAQF show?
Result: 4.05

Problem: Bench note: what amyloid nucleation score did VMCFVDRDRFCNLFKLCLEF show?
Result: -1.45

Problem: Bench note: what amyloid nucleation score did LFVYIFVVKVDF show?
Result: 0.959

Problem: Bench note: what amyloid nucleation score did NLASRALIKLFH show?
Result: -0.538

Problem: Bench note: what amyloid nucleation score did KRSTNWKDC show?
Result: -1.07

Problem: Bench note: what amyloid nucleation score did ISSSSKVD show?
Result: -0.706

Problem: Bench note: what amyloid nucleation score did MYNRSRLSFA show?
Result: -0.666

Problem: Bench note: what amyloid nucleation score did ECFTMSRK show?
Result: -1.28

Problem: Bench note: what amyloid nucleation score did TTSLSYFLIQKALLWKVEYH show?
Result: -1.38

Problem: Bench note: what amyloid nucleation score did TRLVWIFLSPM show?
Result: -0.169

Problem: Bench note: what amyloid nucleation score did NVFTNTLVN show?
Result: 8.67

Problem: Bench note: what amyloid nucleation score did IKCLYV show?
Result: -0.127

Problem: Bench note: what amyloid nucleation score did VEALSISMQLYYRSLVAG show?
Result: -0.066

Problem: Bench note: what amyloid nucleation score did SVVVDIKGVDWVVRVLVGKR show?
Result: -0.484

Problem: Bench note: what amyloid nucleation score did RSLTCLSVKGNLTHTINVCY show?
Result: 6.08
